Entries annotated with measured TGI
System: SF-539 CNS
ASSAY_TEXT: NCI tumour cell line growth inhibition, 48 h
PROPERTY_NAME: TGI

>>> df
                                   compound      result
0  COc1cc(NC(=O)c2ccc(C(F)(F)F)nc2Nc2ccc(Cl)cc2C)cc(OC)c1OC    > 100 µM
1  COc1cc2c(c(OC)c1OC)-c1ccc(SC)c(=O)cc1[C@@H](OC(=O)c1ccncc1)CC2   < 0.01 µM
2      O=C(O)COc1cc(-c2ccccc2)nc2ccc(F)cc12    > 100 µM
3  CCC(=C/[C@H](C)C/C=C/C(C)=C/[C@@H](C)C(=O)[C@@H](C)[C@H](O)[C@@H](C)CC)/C=C/[C@@H]1OC(=O)C=C[C@@H]1C  < 0.005 µM
4  COc1cc2oc(-c3ccc4c(c3)OCO4)c(OC)c(=O)c2c(OC)c1OC    > 100 µM
5                  O=[N+]([O-])c1nccn1COCCI    > 100 µM
6  Cc1c2cnccc2c(C)c2c1c1ccccc1n2CC1CO1 (stereo not given)     2.52 µM
7  NC(Cc1c[nH]c2ccccc12)P(=O)(O)O (stereo not given)    > 100 µM
8  CC1(C(=O)O)CCC(C(=O)O)C(C)(C)O1 (stereo not given)    > 100 µM
9  CC(=O)NC1=C(C)C(=O)c2c(nc3n2CCC3OC(=O)c2ccccc2)C1=O (stereo not given)      3.4 µM
